These entries and their values trace back to patent US12060347B2.

Target: human PAR4 (Homo sapiens, UniProt Q96RI0)
Sequence (Q96RI0 18-385): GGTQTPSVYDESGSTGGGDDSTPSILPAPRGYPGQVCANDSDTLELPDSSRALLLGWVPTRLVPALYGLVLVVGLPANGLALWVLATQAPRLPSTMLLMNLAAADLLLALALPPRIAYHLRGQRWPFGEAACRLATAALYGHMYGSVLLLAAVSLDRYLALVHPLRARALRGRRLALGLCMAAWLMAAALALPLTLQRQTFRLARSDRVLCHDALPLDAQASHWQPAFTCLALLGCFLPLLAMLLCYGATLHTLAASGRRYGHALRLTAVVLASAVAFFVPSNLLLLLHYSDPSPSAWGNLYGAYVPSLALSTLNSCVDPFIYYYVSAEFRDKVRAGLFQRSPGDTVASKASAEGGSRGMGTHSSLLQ
Experiment: PAR4 FLIPR assay: antagonism of agonist-peptide-induced calcium mobilization in PAR4-expressing HEK293 cells
Conditions: H-Ala-Phe(4-F)-[…]NH2-induced intracellular calcium mobilization, 11-point curves
pIC50: −log10 of the molar value.
// false (0) strictly below 8 in pIC50; true (1) otherwise

COMPOUND	QUALITATIVE LABEL
COc1cnc2c(-c3nc4cc(F)c(O[C@@H](C)[C@@H](C)OC(=O)Nc5cnc(N(C)C)nc5)cc4s3)cc(C)cc2n1 [Example 598]	true (1)
COc1cnc2c(-c3nc4cc(F)c(OC[C@@H](C)OC(=O)Nc5ccc(NC(C)=O)nc5)cc4s3)cc(C)cc2n1 [Example 610]	true (1)
COc1cc(C)c2nc(-c3cc(C#N)cc4nc(OC)cnc34)sc2c1 [Example 211]	false (0)
COCc1cnc2c(-c3nc4c(C(O)C(F)(F)F)cc(OC)cc4s3)cc(C)cc2n1 (stereo not drawn) [Example 171]	true (1)
COc1cnc2c(-c3nc4cc(F)c(OC[C@@H](C)OC(=O)Nc5cnc(C(N)=O)nc5)nc4s3)cc(C)cc2n1 [Example 749]	true (1)
COc1cnc2c(-c3nc4c(Cl)c(F)c(OCCOC(=O)Nc5cnc6[nH]ccc6c5)cc4s3)cc(C)cc2n1 [Example 359]	false (0)
Cc1cc(-c2nc3ccccc3o2)c2ncc(OC(F)F)nc2c1 [Example 3]	false (0)
COCc1cnc2c(-c3nc4c(C)cc(OC)cc4s3)cc(C(F)(F)F)cc2n1 [Example 208]	true (1)
COCc1cnc2c(-c3nc4c(Cl)c(F)c(OCC(=O)OC)cc4s3)cc(C)cc2n1 [Example 292]	true (1)
COc1cnc2c(-c3nc4cc(F)c(O[C@@H](C)[C@@H](C)OC(=O)Nc5cnc(CCO)nc5)cc4s3)cc(Cl)cc2c1 [Example 579]	true (1)
COc1cnc2c(-c3nc4cc(F)c(OC[C@@H](C)OC(=O)Nc5cnc(OCCC(C)(C)O)nc5)nc4s3)cc(C)cc2n1 [Example 702]	true (1)
COc1cnc2c(-c3nc4c(C)cc(OCCOC(=O)Nc5cccnc5)nc4s3)cc(C)cc2n1 [Example 196]	true (1)
